system: MALME-3M melanoma; assay: NCI tumour cell line growth inhibition, 48 h
Below: a set of entries, each annotated with reported TGI.
MEASURED PROPERTY: TGI

>>> test_result("O=c1c(O)cccn1C1OC(CO)C(O)C1O (stereo not drawn)")
"> 100 µM"
>>> test_result("COc1cc(/C=C2\\CN(C(=O)CCN3CCC(=NO)CC3)C/C(=C\\c3cc(OC)c(OC)c(OC)c3)C2=O)cc(OC)c1OC")
"0.579 µM"
>>> test_result("C/C(=N/NC(=S)N1CCN(C(=S)N/N=C(/C)c2ccccn2)CC1)c1ccccn1")
"> 100 µM"
>>> test_result("COc1cc(/C=C2\\CC3C4CC=C5C[C@@H](O)CC[C@]5(C)C4CC[C@]3(C)C2=O)ccc1OCCCn1ccnc1 (stereo partly drawn)")
"36.9 µM"
>>> test_result("Cn1cc(C2=C(c3cn(C)c4cc(N)ccc34)C(=O)NC2=O)c2ccccc21")
"> 22.3 µM"
>>> test_result("N#Cc1c(N2CCN(c3ccc([N+](=O)[O-])cc3)CC2)[n+](=O)c2ccc(-c3ccc([N+](=O)[O-])cc3)cc2n1[O-]")
"> 100 µM"
>>> test_result("CC(C(=O)O)c1ccc(-c2ccccc2)c(F)c1 (stereo not drawn)")
"> 100 µM"
>>> test_result("Clc1ccc2c(c1)C(N1CCNCC1)=Nc1ccccc1O2")
"3.5 µM"
>>> test_result("COc1c(Sc2ccccc2)cc(Sc2ccccc2)c2cccnc12")
"44.1 µM"
>>> test_result("CNC(=O)N(CCC#N)CCCN(C(=O)N(C)C)c1ccccc1")
"> 100 µM"
>>> test_result("Cn1c(=O)n(CC2CS2)c2ccccc21 (stereo not drawn)")
"> 100 µM"
>>> test_result("O=C(O)Cc1ccccc1CCc1ccccc1Cl")
"> 100 µM"
>>> test_result("Clc1ccc2ns[s+]c2c1")
"> 100 µM"

----------
system: ACHN renal; test: NCI tumour cell line growth inhibition, 48 h
MEASURED PROPERTY: TGI

>>> test_result("CC(C#N)N(CCc1ccccc1)C(=O)c1ccccc1 (stereo not drawn)")
"> 100 µM"
>>> test_result("O=C(O)c1cccc(/C=C/c2ccccc2)c1")
"> 100 µM"
>>> test_result("COC(=O)[C@@]1(C)CCC[C@]2(C(=O)O)C3Cc4occc4[C@H](C)[C@@H]3CCC21 (stereo partly drawn)")
"> 100 µM"

----------
Quick list: log10 TGI per entry.
system: HOP-62 NSCLC; assay: NCI tumour cell line growth inhibition, 48 h
MEASURED PROPERTY: log10 TGI (log10 of the value in µM)

>>> test_result("CCN(CCCl)c1cccc(NC(=O)c2ccc(C(=O)Nc3cccc(CN(C)C)c3)cc2)c1")
0.79
>>> test_result("O=C(N/N=C/c1ccc(Cl)cc1)c1[nH]c2ccc(Cl)cc2c1-c1ccccc1")
1.56
>>> test_result("CC(C)(CN1CCCCC1)C(/C=C/c1ccccc1)=N\\NC(=O)N/N=C(/C=C/c1ccccc1)C(C)(C)CN1CCCCC1")
0.57
>>> test_result("O=C(NCCCCCCO)c1cccc2cc3ccccc3nc12")
1.52
>>> test_result("COc1ccc(OC)c(C[P+](c2ccccc2)(c2ccccc2)c2ccccc2)c1")
1.35
>>> test_result("COc1ccc(C2SCC(=O)N2NC(=O)C(C)Oc2ccc(Cl)cc2Cl)cc1 (stereo not given)")
1.68
